Test system: LOX IMVI melanoma
test_protocol: NCI-60 one-dose screen, 48 h (100 = growth as untreated, 0 = no growth, -100 = all killed)
condition_context: 10 µM unless noted
The panel holds about 83,000 compounds, 20% with a hit somewhere; the sample as a whole holds those more often.
Ranges used to classify growth: I = under 30%, II = from 30% up to 90%, III = 90% and over

O=C1/C(=C/c2ccc([N+](=O)[O-])o2)Oc2ccc(Br)cc21
I

Lab note: sort O=C(Cc1ccccn1)C(F)(F)C(F)(F)C(F)(F)F into the matching growth band.
III

Lab note: sort CC/C(=C\c1ccc(N(C)C)cc1)c1nc2ccccc2c(=O)[nH]1 into the matching growth band.
III

Lab note: sort CN=C(NC)N/N=C(C)\C=N\NC(=NC)NC into the matching growth band.
III

Values compiled from PubChem BioAssay (NCI).
